Parameter: Percentage of intact compound in human serum. Scope: all listed entries.
# ASSAY_PROTOCOL: Metabolic stability in vitro in human serum (37 °C, 72 ± 2 h)
# Assay type: in vitro ADME
# TEST_CONDITIONS: ^177Lu-labeled NeoB and UL analogs, n = 3
Non-standard residues stand in square brackets, D forms with d. Residues, ends and D or L forms follow the SMILES beside them. *: point of attachment. X2 = O=C(O)CN1CCN(CC(=O)O)CCN(CC(=O)NCc2ccc(NC(=O)COCC(=O)*)cc2)CCN(CC(=O)O)CC1; Bta = N[C@@H](Cc1csc2ccccc12)C(=O)O; NHCH(iBu)2 = CC(C)CC(CC(C)C)N*; hSer = N[C@@H](CCO)C(=O)O
RESULT_TYPE: Percentage of intact compound in human serum (%)

>  <COMPOUND>
CC(C)CC(CC(C)C)NC(=O)[C@H](Cc1c[nH]cn1)NC(=O)CNC(=O)[C@@H](NC(=O)[C@H](C)NC(=O)[C@](C)(Cc1c[nH]c2ccccc12)NC(=O)[C@H](CCC(N)=O)NC(=O)[C@@H](Cc1ccccc1)NC(=O)COCC(=O)Nc1ccc(CNC(=O)CN2CCN(CC(=O)O)CCN(CC(=O)O)CCN(CC(=O)O)CC2)cc1)C(C)C [[α-Me-Trp^8]NeoB]

>  <MEASURED_VALUE>
70.7

$$$$
>  <COMPOUND>
CC(C)CC(CC(C)C)NC(=O)[C@H](Cc1c[nH]cn1)NC(=O)CNC(=O)[C@@H](NC(=O)[C@H](C)NC(=O)[C@H](Cc1c[nH]c2ccccc12)NC(=O)[C@H](CCO)NC(=O)[C@@H](Cc1ccccc1)NC(=O)COCC(=O)Nc1ccc(CNC(=O)CN2CCN(CC(=O)O)CCN(CC(=O)O)CCN(CC(=O)O)CC2)cc1)C(C)C [[Hse^7]NeoB] (X2-[dF][hSer]WAVGH-{NHCH(iBu)2}; N-terminus and C-terminus assumed)

>  <MEASURED_VALUE>
57.4

$$$$
>  <COMPOUND>
CC(C)CC(CC(C)C)NC(=O)[C@H](Cc1c[nH]cn1)NC(=O)CNC(=O)[C@@H](NC(=O)[C@H](C)NC(=O)[C@H](Cc1csc2ccccc12)NC(=O)[C@H](CCC(N)=O)NC(=O)[C@@H](Cc1ccccc1)NC(=O)COCC(=O)Nc1ccc(CNC(=O)CN2CCN(CC(=O)O)CCN(CC(=O)O)CCN(CC(=O)O)CC2)cc1)C(C)C [[Bta^8]NeoB] (X2-[dF]Q[Bta]AVGH-{NHCH(iBu)2}; N-terminus and C-terminus assumed)

>  <MEASURED_VALUE>
36.2

$$$$
>  <COMPOUND>
CC(C)CC(CC(C)C)NC(=O)[C@H](Cc1cnc[nH]1)NC(=O)CNC(=O)[C@@H](NC(=O)[C@H](C)NC(=O)[C@H](Cc1c[nH]c2ccccc12)NC(=O)[C@H](CCC(N)=O)NC(=O)[C@@H](Cc1ccccc1)NC(=O)COCC(=O)Nc1ccc(CNC(=O)CN2CCN(CC(=O)O)CCN(CC(=O)O)CCN(CC(=O)O)CC2)cc1)C(C)C [NeoB, reference compound]

>  <MEASURED_VALUE>
60.8

$$$$

###

# ASSAY_PROTOCOL: Biodistribution in PC-3 tumor-bearing CB17-SCID mice
# Assay type: in vivo
# TEST_CONDITIONS: mouse, adrenal, intravenous, 100 pmol, ^68Ga-labeled; 1 h p.i.; 100 pmol; n = 4; read-out: Uptake in Adrenal
Starred links: 1 amine or outer side, 2 acyl side, 3 side chain; linkers in the order of their positions; H or OH if unused. Non-standard residues stand in square brackets, D forms with d. Residues, ends and D or L forms follow the SMILES beside them. *: point of attachment. DOTA = O=C(O)CN1CCN(CC(=O)O)CCN(CC(=O)*)CCN(CC(=O)O)CC1; Sta = CC(C)C[C@H](N)[C@@H](O)CC(=O)O; Bta = N[C@@H](Cc1csc2ccccc12)C(=O)O; X1 = O=C(CN1CCC(N[*:1])CC1)[*:2]; hSer = N[C@@H](CCO)C(=O)O
RESULT_TYPE: tissue uptake at 1 h

>  <MOLECULE>
CC(C)C[C@H](NC(=O)C[C@H](O)[C@H](CC(C)C)NC(=O)[C@H](Cc1c[nH]cn1)NC(=O)CNC(=O)[C@@H](NC(=O)[C@H](C)NC(=O)[C@H](Cc1csc2ccccc12)NC(=O)[C@H](CCC(N)=O)NC(=O)[C@@H](Cc1ccccc1)NC(=O)CN1CCC(NC(=O)CN2CCN(CC(=O)O)CCN(CC(=O)O)CCN(CC(=O)O)CC2)CC1)C(C)C)C(N)=O [[^68Ga]Ga-[Bta^8]RM2, metal not drawn] ({DOTA}-[X1][dF]Q[Bta]AVGH[Sta]L-NH2)

>  <MEASURED_VALUE>
1.95 %ID/g

$$$$
>  <MOLECULE>
CC(C)C[C@H](NC(=O)C[C@H](O)[C@H](CC(C)C)NC(=O)[C@H](Cc1c[nH]cn1)NC(=O)CNC(=O)[C@@H](NC(=O)[C@H](C)NC(=O)[C@H](Cc1c[nH]c2ccccc12)NC(=O)[C@H](CCO)NC(=O)[C@@H](Cc1ccccc1)NC(=O)CN1CCC(NC(=O)CN2CCN(CC(=O)O)CCN(CC(=O)O)CCN(CC(=O)O)CC2)CC1)C(C)C)C(N)=O [[^68Ga]Ga-[Hse^7]RM2, metal not drawn] ({DOTA}-[X1][dF][hSer]WAVGH[Sta]L-NH2)

>  <MEASURED_VALUE>
2.47 %ID/g

$$$$

###

# ASSAY_PROTOCOL: Biodistribution in PC-3 tumor-bearing CB17-SCID mice
# Type: in vivo
# TEST_CONDITIONS: CB17-SCID, mouse, tumor and pancreas, iv, 100 pmol, total radioactivity; ^68Ga-labeled; 1 h p.i.; n = 4; read-out: Tumor-to-Pancreas ratio
Starred links: 1 amine or outer side, 2 acyl side, 3 side chain; linkers in the order of their positions; H or OH if unused. Non-standard residues stand in square brackets, D forms with d. Residues, ends and D or L forms follow the SMILES beside them. *: point of attachment. DOTA = O=C(O)CN1CCN(CC(=O)O)CCN(CC(=O)*)CCN(CC(=O)O)CC1; Sta = CC(C)C[C@H](N)[C@@H](O)CC(=O)O; Bta = N[C@@H](Cc1csc2ccccc12)C(=O)O; X1 = O=C(CN1CCC(N[*:1])CC1)[*:2]; hSer = N[C@@H](CCO)C(=O)O
RESULT_TYPE: tissue to tissue ratio at 1 h

>  <MOLECULE>
CC(C)C[C@H](NC(=O)C[C@H](O)[C@H](CC(C)C)NC(=O)[C@H](Cc1c[nH]cn1)NC(=O)CNC(=O)[C@@H](NC(=O)[C@H](C)NC(=O)[C@H](Cc1csc2ccccc12)NC(=O)[C@H](CCC(N)=O)NC(=O)[C@@H](Cc1ccccc1)NC(=O)CN1CCC(NC(=O)CN2CCN(CC(=O)O)CCN(CC(=O)O)CCN(CC(=O)O)CC2)CC1)C(C)C)C(N)=O [[^68Ga]Ga-[Bta^8]RM2, metal not drawn] ({DOTA}-[X1][dF]Q[Bta]AVGH[Sta]L-NH2)

>  <MEASURED_VALUE>
1.9

$$$$
>  <MOLECULE>
CC(C)C[C@H](NC(=O)C[C@H](O)[C@H](CC(C)C)NC(=O)[C@H](Cc1c[nH]cn1)NC(=O)CNC(=O)[C@@H](NC(=O)[C@H](C)NC(=O)[C@H](Cc1c[nH]c2ccccc12)NC(=O)[C@H](CCO)NC(=O)[C@@H](Cc1ccccc1)NC(=O)CN1CCC(NC(=O)CN2CCN(CC(=O)O)CCN(CC(=O)O)CCN(CC(=O)O)CC2)CC1)C(C)C)C(N)=O [[^68Ga]Ga-[Hse^7]RM2, metal not drawn] ({DOTA}-[X1][dF][hSer]WAVGH[Sta]L-NH2)

>  <MEASURED_VALUE>
0.9

$$$$

###

# ASSAY_PROTOCOL: Biodistribution in PC-3 tumor-bearing CB17-SCID mice
# Assay type: in vivo
# TEST_CONDITIONS: mouse, tumor, intravenous, 100 pmol, ^68Ga-labeled; 1 h p.i.; 100 pmol; n = 4; read-out: Uptake in Tumor
Starred links: 1 amine or outer side, 2 acyl side, 3 side chain; linkers in the order of their positions; H or OH if unused. Non-standard residues stand in square brackets, D forms with d. Residues, ends and D or L forms follow the SMILES beside them. *: point of attachment. DOTA = O=C(O)CN1CCN(CC(=O)O)CCN(CC(=O)*)CCN(CC(=O)O)CC1; Sta = CC(C)C[C@H](N)[C@@H](O)CC(=O)O; Bta = N[C@@H](Cc1csc2ccccc12)C(=O)O; X1 = O=C(CN1CCC(N[*:1])CC1)[*:2]; hSer = N[C@@H](CCO)C(=O)O

>  <MOLECULE>
CC(C)C[C@H](NC(=O)C[C@H](O)[C@H](CC(C)C)NC(=O)[C@H](Cc1c[nH]cn1)NC(=O)CNC(=O)[C@@H](NC(=O)[C@H](C)NC(=O)[C@H](Cc1c[nH]c2ccccc12)NC(=O)[C@H](CCO)NC(=O)[C@@H](Cc1ccccc1)NC(=O)CN1CCC(NC(=O)CN2CCN(CC(=O)O)CCN(CC(=O)O)CCN(CC(=O)O)CC2)CC1)C(C)C)C(N)=O [[^68Ga]Ga-[Hse^7]RM2, metal not drawn] ({DOTA}-[X1][dF][hSer]WAVGH[Sta]L-NH2)

>  <tissue uptake at 1 h>
~7.5 %ID/g

$$$$
>  <MOLECULE>
CC(C)C[C@H](NC(=O)C[C@H](O)[C@H](CC(C)C)NC(=O)[C@H](Cc1c[nH]cn1)NC(=O)CNC(=O)[C@@H](NC(=O)[C@H](C)NC(=O)[C@H](Cc1csc2ccccc12)NC(=O)[C@H](CCC(N)=O)NC(=O)[C@@H](Cc1ccccc1)NC(=O)CN1CCC(NC(=O)CN2CCN(CC(=O)O)CCN(CC(=O)O)CCN(CC(=O)O)CC2)CC1)C(C)C)C(N)=O [[^68Ga]Ga-[Bta^8]RM2, metal not drawn] ({DOTA}-[X1][dF]Q[Bta]AVGH[Sta]L-NH2)

>  <tissue uptake at 1 h>
~7.5 %ID/g

$$$$
